- target: hERG K+ channel (Homo sapiens, UniProt Q12809)
- Construct: host or cells: CHO K1 (ATCC), stably expressing hERG
- Sequence (Q12809 whole entry): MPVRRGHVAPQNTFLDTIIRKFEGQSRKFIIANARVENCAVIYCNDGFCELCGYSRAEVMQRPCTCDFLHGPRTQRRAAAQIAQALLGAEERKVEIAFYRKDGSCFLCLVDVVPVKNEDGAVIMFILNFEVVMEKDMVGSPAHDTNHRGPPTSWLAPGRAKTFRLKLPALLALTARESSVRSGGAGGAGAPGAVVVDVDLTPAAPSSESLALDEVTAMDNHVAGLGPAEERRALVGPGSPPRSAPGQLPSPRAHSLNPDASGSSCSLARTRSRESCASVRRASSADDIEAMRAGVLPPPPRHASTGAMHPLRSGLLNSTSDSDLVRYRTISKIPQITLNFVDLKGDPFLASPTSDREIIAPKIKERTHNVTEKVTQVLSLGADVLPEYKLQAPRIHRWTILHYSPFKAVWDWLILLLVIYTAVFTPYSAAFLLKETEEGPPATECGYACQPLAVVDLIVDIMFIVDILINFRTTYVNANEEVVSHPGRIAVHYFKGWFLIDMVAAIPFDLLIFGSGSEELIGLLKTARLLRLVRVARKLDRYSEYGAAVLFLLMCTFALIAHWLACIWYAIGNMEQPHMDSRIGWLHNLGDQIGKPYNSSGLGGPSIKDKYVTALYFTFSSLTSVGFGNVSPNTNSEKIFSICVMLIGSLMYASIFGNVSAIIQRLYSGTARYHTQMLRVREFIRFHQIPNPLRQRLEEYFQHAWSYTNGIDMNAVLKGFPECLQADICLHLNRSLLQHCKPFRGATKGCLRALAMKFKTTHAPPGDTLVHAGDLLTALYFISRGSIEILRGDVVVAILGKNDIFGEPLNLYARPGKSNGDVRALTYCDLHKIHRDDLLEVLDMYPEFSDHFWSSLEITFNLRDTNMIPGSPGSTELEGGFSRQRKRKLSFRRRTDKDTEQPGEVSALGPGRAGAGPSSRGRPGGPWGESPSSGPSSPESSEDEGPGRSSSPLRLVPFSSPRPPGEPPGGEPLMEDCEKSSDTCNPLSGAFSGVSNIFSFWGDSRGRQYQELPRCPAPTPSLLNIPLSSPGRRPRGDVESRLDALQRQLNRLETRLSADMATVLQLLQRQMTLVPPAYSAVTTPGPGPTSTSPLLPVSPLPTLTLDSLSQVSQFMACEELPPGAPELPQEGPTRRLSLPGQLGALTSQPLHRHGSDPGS
- test-details: QPatch hERG assay
- Format: cell-based
- measurement-parameters: CHO K1 cells stably expressing hERG, pH 7.4, read-out: hERG SI (selectivity index = hERG IC50/PfNF54 IC50)
measurement-label: selectivity ratio at 4 min
One number for each entry.

Return selectivity ratio at 4 min measured with hERG K+ channel (Homo sapiens, UniProt Q12809) given this molecule: FC1CN(CCc2ccc(-c3noc(C(F)(F)F)n3)cc2)CCC1Nc1nc2ccccc2[nH]1 (stereo not shown)
4.47

====

- target: hERG K+ channel (Homo sapiens, UniProt Q12809)
- Construct: host or cells: CHO K1 (ATCC), stably expressing hERG
- test-details: QPatch hERG assay
- Assay type: cell-based
- measurement-parameters: CHO K1 cells stably expressing hERG, pH 7.4, QPatch, CHO K1 cells expressing hERG
measurement-label: IC50 at 4 min
Don't forget the unit after the value.

Could you share which IC50 at 4 min value was measured for FC1CN(CCc2ccc(-c3noc(C(F)(F)F)n3)cc2)CCC1Nc1nc2ccccc2[nH]1 (stereo not shown) ?
980 nM
